These data points were gathered from paper PMC5748027.

Molecular target: human PDE7A (Homo sapiens, UniProt Q13946)
Construct: expressed in transfected cells; host or cells: AD293 (transient transfection)
Sequence (Q13946 whole entry): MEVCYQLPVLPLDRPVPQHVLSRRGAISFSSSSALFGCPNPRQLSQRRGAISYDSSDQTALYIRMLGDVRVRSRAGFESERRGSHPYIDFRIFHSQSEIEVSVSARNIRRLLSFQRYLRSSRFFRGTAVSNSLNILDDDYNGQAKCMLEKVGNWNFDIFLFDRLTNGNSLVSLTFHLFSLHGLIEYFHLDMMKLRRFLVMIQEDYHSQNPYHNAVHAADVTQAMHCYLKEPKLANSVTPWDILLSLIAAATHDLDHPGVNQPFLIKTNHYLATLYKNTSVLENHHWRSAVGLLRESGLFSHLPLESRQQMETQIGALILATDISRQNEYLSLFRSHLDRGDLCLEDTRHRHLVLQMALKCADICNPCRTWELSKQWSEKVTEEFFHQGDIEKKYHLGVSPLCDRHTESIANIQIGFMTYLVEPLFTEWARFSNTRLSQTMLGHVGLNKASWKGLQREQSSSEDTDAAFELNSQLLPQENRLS
Assay: Phosphodiesterase activity, AD293 cells transiently transfected with human PDE7A
Type: biochemical
Conditions: 10 µM compound; read-out: Percentage inhibition at 10µM (PDE7A)
Examples of compounds with documented inhibition at 10 µM follow.
Note: unit % is implicit; provide only the numeric part.

- compound: "N#Cc1c(-c2ccccc2F)cc(-c2ccccc2F)nc1N [Compound 18]"
  inhibition at 10 µM / %: 25
- compound: "COc1ccccc1-c1cc(-c2ccccc2)nc(N)c1C#N [Compound 5]"
  inhibition at 10 µM / %: 24

Enquiry: So what's the measured inhibition at 10 µM for this one? N#Cc1c(-c2ccccc2)cc(-c2ccc(O)cc2)nc1N [Compound 2]
Return: 47

Enquiry: Another compound to look at: COc1ccc(-c2cc(-c3ccccc3C)nc(N)c2C#N)cc1 [Compound 15]
Return: 57

Enquiry: Another compound to look at: N#Cc1c(-c2ccccc2)cc(-c2nccs2)nc1N [Compound 3]
Return: 24

###

Molecular target: human PDE7B (Homo sapiens)
Construct: expressed in transfected cells; host or cells: AD293 (transient transfection)
Sequence (Q9NP56 whole entry): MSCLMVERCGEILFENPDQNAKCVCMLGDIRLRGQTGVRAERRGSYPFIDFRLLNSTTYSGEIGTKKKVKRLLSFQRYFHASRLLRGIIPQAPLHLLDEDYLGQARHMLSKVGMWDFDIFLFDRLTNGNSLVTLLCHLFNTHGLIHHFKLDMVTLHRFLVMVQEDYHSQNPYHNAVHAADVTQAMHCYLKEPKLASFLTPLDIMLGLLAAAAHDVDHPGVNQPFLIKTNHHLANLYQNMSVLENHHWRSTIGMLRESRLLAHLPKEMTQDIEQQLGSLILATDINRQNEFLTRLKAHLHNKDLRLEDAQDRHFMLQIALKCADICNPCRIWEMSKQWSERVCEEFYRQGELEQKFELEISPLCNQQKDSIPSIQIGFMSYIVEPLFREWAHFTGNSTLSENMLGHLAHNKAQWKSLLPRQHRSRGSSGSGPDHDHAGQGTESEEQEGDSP
Test: Phosphodiesterase activity, AD293 cells transiently transfected with human PDE7B
Type: biochemical
Details: 10 µM compound; read-out: Percentage inhibition at 10µM (PDE7B)
measured.parameter: inhibition at 10 µM
The reply should consist of the numeric value with the unit placed after it.

- compound: "COc1ccc(-c2cc(-c3ccccc3)nc(N)c2C#N)c(OC)c1 [Compound 6]"
  test.result: "27%"
- compound: "N#Cc1c(C2CCCCC2)cc(-c2ccsc2)nc1N [Compound 12]"
  test.result: "60%"
- compound: "COc1ccccc1-c1cc(-c2ccc(O)cc2)nc(N)c1C#N [Compound 22]"
  test.result: "16%"
- compound: "N#Cc1c(-c2ccccc2F)cc(-c2ccccc2F)nc1N [Compound 18]"
  test.result: "36%"

API: the following record is the query input.
Enquiry: So what's the measured inhibition at 10 µM for this one? N#Cc1c(C2CCCCC2)cc(-c2ccco2)nc1N [Compound 13]
Return: 41%

###

Target: human PDE10A (Homo sapiens, UniProt Q9Y233)
Sequence (Q9Y233 267-1055 limits assumed): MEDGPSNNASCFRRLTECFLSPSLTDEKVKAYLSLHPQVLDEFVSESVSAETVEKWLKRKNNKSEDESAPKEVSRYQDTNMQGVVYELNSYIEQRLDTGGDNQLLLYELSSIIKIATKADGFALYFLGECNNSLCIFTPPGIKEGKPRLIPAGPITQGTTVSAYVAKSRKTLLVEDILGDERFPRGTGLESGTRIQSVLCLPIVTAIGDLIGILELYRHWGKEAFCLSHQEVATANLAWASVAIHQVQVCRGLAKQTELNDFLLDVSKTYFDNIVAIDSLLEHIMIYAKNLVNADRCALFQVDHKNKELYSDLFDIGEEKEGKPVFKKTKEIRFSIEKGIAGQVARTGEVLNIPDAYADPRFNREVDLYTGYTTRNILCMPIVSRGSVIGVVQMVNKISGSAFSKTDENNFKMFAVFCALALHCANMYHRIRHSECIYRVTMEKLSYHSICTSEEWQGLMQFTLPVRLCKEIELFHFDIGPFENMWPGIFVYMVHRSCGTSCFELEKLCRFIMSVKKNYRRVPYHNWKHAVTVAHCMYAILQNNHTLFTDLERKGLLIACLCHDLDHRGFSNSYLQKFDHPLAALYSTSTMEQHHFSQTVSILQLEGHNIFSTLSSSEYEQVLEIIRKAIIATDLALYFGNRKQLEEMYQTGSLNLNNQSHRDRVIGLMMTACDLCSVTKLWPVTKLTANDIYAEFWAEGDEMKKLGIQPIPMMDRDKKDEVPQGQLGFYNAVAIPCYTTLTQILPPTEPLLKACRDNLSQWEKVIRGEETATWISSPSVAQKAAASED
Hi! Could you tag entries with IC50 below 6 µM as met, and those at or above as not met? Much appreciated.

Answered cases to consult:
- query.smiles: "COc1ccc(-c2cc(-c3ccccc3C)nc(N)c2C#N)cc1"
  answer.label: "met"
- query.smiles: "COc1ccccc1-c1cc(-c2ccccc2C)nc(N)c1C#N"
  answer.label: "not met"
- query.smiles: "N#Cc1c(-c2ccco2)cc(-c2ccsc2)nc1N"
  answer.label: "met"
- query.smiles: "COc1ccc(-c2cc(-c3ccccc3)nc(N)c2C#N)c(OC)c1"
  answer.label: "met"

Continue with the next molecule.
Enquiry: Is it true that IC50 reported for COc1ccccc1-c1cc(-c2ccc(O)cc2)nc(N)c1C#N is less than 6 µM?
Return: met

###

Examples of compounds with documented inhibition at 10 µM follow.
Biological target: human PDE9A (Homo sapiens, UniProt O76083)
Construct: expressed in transfected cells; host or cells: AD293 (transient transfection)
Sequence (O76083 whole entry): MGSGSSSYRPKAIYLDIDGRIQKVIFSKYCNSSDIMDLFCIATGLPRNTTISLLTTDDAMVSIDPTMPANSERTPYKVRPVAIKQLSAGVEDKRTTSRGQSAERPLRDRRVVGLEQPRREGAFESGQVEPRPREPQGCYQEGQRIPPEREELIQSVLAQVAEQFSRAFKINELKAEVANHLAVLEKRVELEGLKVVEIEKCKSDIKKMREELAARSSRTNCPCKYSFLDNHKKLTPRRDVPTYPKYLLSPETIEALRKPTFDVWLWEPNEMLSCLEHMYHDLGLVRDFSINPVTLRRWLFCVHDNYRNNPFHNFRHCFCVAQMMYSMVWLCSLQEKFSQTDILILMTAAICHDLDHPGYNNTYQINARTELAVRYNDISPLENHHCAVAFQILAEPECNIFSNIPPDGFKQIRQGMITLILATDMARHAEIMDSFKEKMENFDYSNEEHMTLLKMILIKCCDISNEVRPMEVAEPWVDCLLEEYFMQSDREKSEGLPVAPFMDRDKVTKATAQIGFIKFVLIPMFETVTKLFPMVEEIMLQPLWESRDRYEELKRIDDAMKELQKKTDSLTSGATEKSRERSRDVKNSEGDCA
Experiment: Phosphodiesterase activity, AD293 cells transiently transfected with human PDE9A
Format: biochemical
Conditions: 10 µM compound; read-out: Percentage inhibition at 10µM (PDE9A)
The reply should consist of the numeric value with the unit placed after it.

// solved cases for inhibition at 10 µM follow
- query.smiles: "N#Cc1c(C2CCCCC2)cc(-c2ccsc2)nc1N"
  inhibition at 10 µM: "3%"
- query.smiles: "COc1ccc(-c2cc(-c3ccccc3)nc(N)c2C#N)c(OC)c1"
  inhibition at 10 µM: "1%"
- query.smiles: "COc1ccccc1-c1cc(-c2ccccc2C)nc(N)c1C#N"
  inhibition at 10 µM: "12%"
- query.smiles: "COc1ccc(-c2cc(-c3ccccc3F)nc(N)c2C#N)cc1"
  inhibition at 10 µM: "7%"
- query.smiles: "COc1ccc(-c2cc(-c3ccc(O)cc3)nc(N)c2C#N)cc1"
  inhibition at 10 µM: "7%"
- query.smiles: "N#Cc1c(-c2ccco2)cc(-c2ccsc2)nc1N"
  inhibition at 10 µM: "14%"

Enquiry: So what's the measured inhibition at 10 µM for this one? COc1ccc(-c2cc(-c3ccccc3C)nc(N)c2C#N)cc1
Return: 16%
